Each recorded value in this set is attributed to paper PMC8231572.

# ASSAYED TARGET: heparanase (Homo sapiens, UniProt Q9Y251)
# Sequence (Q9Y251 158-543 limits assumed): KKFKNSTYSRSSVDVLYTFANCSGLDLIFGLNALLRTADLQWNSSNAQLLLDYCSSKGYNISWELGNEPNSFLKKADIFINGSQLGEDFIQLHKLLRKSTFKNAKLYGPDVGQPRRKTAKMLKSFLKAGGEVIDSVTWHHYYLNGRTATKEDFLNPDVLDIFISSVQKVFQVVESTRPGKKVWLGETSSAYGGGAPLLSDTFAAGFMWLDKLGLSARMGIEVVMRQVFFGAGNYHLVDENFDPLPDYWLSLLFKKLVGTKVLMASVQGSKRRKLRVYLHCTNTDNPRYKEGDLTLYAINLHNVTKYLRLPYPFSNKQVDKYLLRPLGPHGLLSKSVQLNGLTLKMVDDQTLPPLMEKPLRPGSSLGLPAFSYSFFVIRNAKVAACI
# Sequence (Q9Y251 36-109 limits assumed): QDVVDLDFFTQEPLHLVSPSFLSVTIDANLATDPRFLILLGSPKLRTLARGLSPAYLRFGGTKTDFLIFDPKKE
# ASSAY: Colorimetric heparanase assay (fondaparinux/Arixtra cleavage, WST-1)
# Type: biochemical
# MEASUREMENT SETUP: fondaparinux substrate, heparanase 140 pM, pH 5.0, 37 °C, 18 h; read-out: IC50, inhibition of heparanase enzymatic activity (converted)
For each entry below, report its IC50 value.
Just so you know, I need the unit written after the number.

>  <COMPOUND>
Cc1ccc(-c2nnc3sc(-c4cc(I)cc(I)c4O)nn23)cc1 [4-MDI]

>  <ASSAYED TARGET>
heparanase (Homo sapiens, UniProt Q9Y251)

>  <QUANTITY KIND>
IC50

>  <OBS VALUE>
22.3 µM

$$$$
>  <COMPOUND>
Cc1ccc(-c2nnc3sc(-c4cc(I)ccc4O)nn23)cc1 [4-MMI]

>  <ASSAYED TARGET>
heparanase (Homo sapiens, UniProt Q9Y251)

>  <QUANTITY KIND>
IC50

>  <OBS VALUE>
7.14 µM

$$$$
>  <COMPOUND>
Oc1c(I)cc(I)cc1-c1nn2c(-c3ccccc3)nnc2s1 [DTP, reference compound]

>  <ASSAYED TARGET>
heparanase (Homo sapiens, UniProt Q9Y251)

>  <QUANTITY KIND>
IC50

>  <OBS VALUE>
54.9 µM

$$$$

Asked: Look up IC50: Oc1ccc(I)cc1-c1nn2c(-c3ccc(Cl)cc3)nnc2s1 [4-CMI]
Given back: 6.6 µM
